// reported one-hybrid fitness for binding parS DNA per item
B1: Caulobacter ParB omega fusion; a variant is named by its letters at X, in order, B8GW30 (parent)
chain: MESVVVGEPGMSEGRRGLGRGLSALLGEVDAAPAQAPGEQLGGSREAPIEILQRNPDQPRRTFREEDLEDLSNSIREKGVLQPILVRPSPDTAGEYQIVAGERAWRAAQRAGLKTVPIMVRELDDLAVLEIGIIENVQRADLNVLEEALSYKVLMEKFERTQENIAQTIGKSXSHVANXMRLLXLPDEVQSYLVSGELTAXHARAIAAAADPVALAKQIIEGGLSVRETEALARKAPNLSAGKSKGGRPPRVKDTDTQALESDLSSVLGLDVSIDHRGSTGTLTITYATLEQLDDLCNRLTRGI

- Variants of: B1
- method-summary: one-hybrid fitness for binding parS DNA (scaled: cognate 1, non-cognate 0); higher = stronger binding
- condition-summary: with parS DNA site
Whole data set: some 81,000 sequences, median “one-hybrid fitness for binding parS DNA” near -0.17, cut for the highest 2% near 0.51. What follows is part of a selection rich in the highest values, with near analogues and random picks from the rest.

Known one-hybrid fitness for binding parS DNA results, listed for orientation:
{"columns": ["mutation-key", "result"],
 "data": [
  ["AARS", "≤ 0.2"],
  ["RIAG", 0.997]
]}

**Q:** Look up one-hybrid fitness for binding parS DNA: RMMN
**A:** 0.435

**Q:** Also check RKMC
**A:** 0.897

**Q:** Also check ACEY
**A:** ≤ 0.2

**Q:** Also check RHTH
**A:** ≤ 0.2

**Q:** Also check YSKG
**A:** ≤ 0.2

**Q:** Also check RGCG
**A:** 0.558

**Q:** Also check SIKI
**A:** ≤ 0.2

**Q:** Also check RYVR
**A:** ≤ 0.2
